Tested on: SNB-19
testDetails: NCI tumour cell line growth inhibition, 48 h
Active and inactive are the calls of the source. Rule as the data show it: active = GI50 up to about 1.1 µM and inactive = higher.

# compound, GI50
records = [
    ("C=C1C(=O)O[C@H]2[C@H]1[C@H](OC(=O)/C(C)=C\\C)C[C@]1(CO1)[C@@H]1[C@H](OC(C)=O)C=C(C)[C@]21O [EUPAROTIN ACETATE]", "> 58.5 µM (inactive)"),
    ("COC(=O)CC(C(C(=O)OC)C(=O)OC)N1C(=O)OC(c2ccccc2)C1c1ccccc1 (centres undefined)", "> 100 µM (inactive)"),
    ("COC(=O)C1=C(C)NC2=C(C(=O)c3ccccc32)C1c1c[nH]nc1-c1ccccc1 (centres undefined)", "41.5 µM (inactive)"),
    ("c1ccc2nc(-c3ccc4c(c3)OCO4)ccc2c1", "73.5 µM (inactive)"),
]

----------
Catalogue of GI50 readings, one per entry.
Tested on: HCC 2998
testDetails: NCI tumour cell line growth inhibition, 48 h
Calls of active or inactive are those of the source. Cut-off read from the data, not from the text of the source: active = GI50 up to about 1.1 µM and inactive = higher.

# compound, GI50
records = [
    ("COC(=O)[C@H](COC(=O)/C=C/c1ccc(OC(C)=O)c(OC(C)=O)c1)NC(=O)/C=C/c1ccc(OC(C)=O)c(OC(C)=O)c1", "17.6 µM (inactive)"),
    ("O=C(Nc1ccc(F)cc1)c1cc2ccc(O)cc2o/c1=N\\c1cccc(F)c1", "55.6 µM (inactive)"),
    ("O=C(CSCC(=O)N/N=C\\c1ccc(F)cc1F)N/N=C\\c1ccc(F)cc1F", "> 100 µM (inactive)"),
    ("c1ccc2nc(-c3ccc4c(c3)OCO4)ccc2c1", "38.3 µM (inactive)"),
    ("CCOC(=O)C1=CNC2=N[C@H]3CCCC[C@@H]3N2C1=O", "> 100 µM (inactive)"),
    ("CC(=O)O[C@H]1C[C@H]2[C@@H]([C@H](OC(C)=O)C[C@@H]3CC4(CC[C@@]32C)OOC2(CCCCC2)OO4)[C@@H]2CC[C@H]([C@H](C)CCC(N)=O)[C@@]12C", "3.63 µM (inactive)"),
    ("C=CCN1C(=O)CS/C1=N\\NC(=O)CSc1nc2ccccc2c(=O)n1CC", "> 100 µM (inactive)"),
    ("O=C(C/C(=N/O)C(=O)NC1=C(Cl)C(=O)c2ccccc2C1=O)CC(c1ccccc1)c1c(O)c2ccccc2oc1=O (stereo not drawn)", "11.9 µM (inactive)"),
]

----------
Items are presented alongside their recorded GI50.
Test system: CAKI-1
testDetails: NCI tumour cell line growth inhibition, 48 h
Activity calls are given as the source filed them. Rule as the data show it: active = GI50 up to about 1.1 µM and inactive = higher.

# molecule, GI50
rows = [
    ("COc1cc2c(c(O)c1OC)C(O)C1CCC(=O)N1C2c1cccc2ccccc12 (stereo unspecified)", "> 100 µM (inactive)"),
    ("CC(C)(C)C#COC(=O)c1ccccc1", "> 100 µM (inactive)"),
    ("O=c1c2c3c(sc2nc2n1sc1nc4sc5c(c4c(=O)n12)CCCC5)CCCC3", "19.5 µM (inactive)"),
    ("CCOc1ccc(O)cc1[P+](c1ccccc1)(c1ccccc1)c1ccccc1", "8.24 µM (inactive)"),
    ("O=C1/C(=C2/C(=O)N(c3ccccc3)c3ccccc32)Nc2ccccc21", "45.5 µM (inactive)"),
    ("O=C1C2C(c3ccccc3)NC(c3ccccc3)C1C(c1ccccc1)NC2c1ccccc1 (stereo unspecified)", "> 100 µM (inactive)"),
    ("Cc1nc2c(Cl)cc(Cl)cc2c2c1CCO2", "23.3 µM (inactive)"),
    ("CCCCCCCCCCCCCCCC(=O)OCC(O)C1OC(=O)C(O)=C1O (stereo unspecified)", "43.9 µM (inactive)"),
    ("CC(C)CCCC(C)[C@H]1CC[C@H]2N/C(=N/c3ccccc3)CCC[C@]12C (stereo partly specified)", "2.29 µM (inactive)"),
    ("COC(=O)/C(C#N)=C(\\N)C(Cl)(Cl)Cl", "5.4 µM (inactive)"),
    ("CCOC(=O)N1CCN(c2ccc3c(C)cc(C)nc3n2)CC1", "> 100 µM (inactive)"),
]
